src = the supplement of paper PMC10567573

B1: BTBD1 (parent)
chain: FVLGKGRGAAAAGGPQRIPAHRFV

# Variants of: B1
# assay.comment: protein stability index of a GFP-peptide fusion (GPS, HEK-293T) (PSI 1-6); higher = more stable;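 also: lentivirally expressed fusions sorted by FACS into six bins by GFP to DsRed ratio, PSI derived from sequencing read proportions per bin multiplied by bin number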
# settings: c terminus: a fixed tail appended
Answer each item with its documented protein stability index.
Give bare numbers.

[[record]]
mutant_designation = "V2L"
observable = "protein stability index"
endpoint_value = 1.97

[[record]]
mutant_designation = "Q16E"
observable = "protein stability index"
endpoint_value = 1.67

[[record]]
mutant_designation = "A11I"
observable = "protein stability index"
endpoint_value = 1.87

[[record]]
mutant_designation = "F1R"
observable = "protein stability index"
endpoint_value = 3.35

[[record]]
mutant_designation = "H21S"
observable = "protein stability index"
endpoint_value = 1.56


# batch size: 3; output protein stability index per entry
1. A12C
2. G8S
3. G14L

[2.54, 1.2, 2.15]
